The measured values listed here are drawn from patent US20180371107A1.

Would you kindly list Affinity improvement to mNSP4 for each of these binders?
- Study target: T1, mouse NSP4 (mNSP4), form not stated in Example 6 (mouse, UniProt Q14B24 40-284, limits assumed)
- T1 construct: also called recombinant mouse NSP4; purified mouse NSP4
- T1 sequence (looked up): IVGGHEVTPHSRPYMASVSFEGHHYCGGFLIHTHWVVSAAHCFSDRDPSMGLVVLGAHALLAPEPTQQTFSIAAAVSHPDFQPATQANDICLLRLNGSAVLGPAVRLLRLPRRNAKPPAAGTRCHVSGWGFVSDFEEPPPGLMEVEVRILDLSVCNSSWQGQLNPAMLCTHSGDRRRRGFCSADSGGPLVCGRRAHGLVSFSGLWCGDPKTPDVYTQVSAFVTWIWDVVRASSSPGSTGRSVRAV
- Measurement protocol: ratio of phage IC50 against the parental clone 51.WT
Write the numeric value and follow it with the unit.

A selection of reference data follows.
Binder: affinity matured anti-NSP4 antibody clone 51.51 (Fab, V domains shown) VH: EVQLVESGGGLVQPGGSLRLSCAASGFTFSGSGIHWVRQAPGKGLEWVAWISPTGGNTYYADSVKGRFTISADTSKNTAYLQMNSLRAEDTAVYYCARGLFHNVAFDYWGQGTLVTVSS VL: DIQMTQSPSSLSASVGDRVTITCRASQDVSTAVAWYQQKPGKAPKLLIYSASFLYSGVPSRFSGSGSGTDFTLTISSLQPEDFATYYCQQSYTAPPTFGQGTKVEIKR
Affinity improvement to mNSP4: 63 fold

Binder: affinity matured anti-NSP4 antibody clone 51.30 (Fab, V domains shown) VH: EVQLVESGGGLVQPGGSLRLSCAASGFTFSGSGIHWVRQAPGKGLEWVAWIPTAGGNTYYADSVKGRFTISADTSKNTAYLQMNSLRAEDTAVYYCAKSLFHNVAFDYWGQGTLVTVSS VL: DIQMTQSPSSLSASVGDRVTITCRASQDVSTAVAWYQQKPGKAPKLLIYSASFLYSGVPSRFSGSGSGTDFTLTISSLQPEDFATYYCQQSYTAPPTFGQGTKVEIKR
Affinity improvement to mNSP4: 161 fold

Binder: affinity matured anti-NSP4 antibody clone 51.50 (Fab, V domains shown) VH: EVQLVESGGGLVQPGGSLRLSCAASGFTFSGSGIHWVRQAPGKGLEWVAWISPTGGNTYYADSVKGRFTISADTSKNTAYLQMNSLRAEDTAVYYCAKSLFHNVAFDYWGQGTLVTVSS VL: DIQMTQSPSSLSASVGDRVTITCRASQDVSTAVAWYQQKPGKAPKLLIYSASFLYSGVPSRFSGSGSGTDFTLTISSLQPEDFATYYCQQANSTPPTFGQGTKVEIKR
Affinity improvement to mNSP4: 178 fold

Task: For the binder affinity matured anti-NSP4 antibody clone 51.72 (Fab, V domains shown) VH: EVQLVESGGGLVQPGGSLRLSCAASGFTFSGSGIHWVRQAPGKGLEWVAWISPTGGNTYYADSVKGRFTISADTSKNTAYLQMNSLRAEDTAVYYCAKSLFHNVAFDYWGQGTLVTVSS VL: DIQMTQSPSSLSASVGDRVTITCRASQDVSTAVAWYQQKPGKAPKLLIYSASFLYSGVPSRFSGSGSGTDFTLTISSLQPEDFATYYCQQSYTAPPTFGQGTKVEIKR , report Affinity improvement to mNSP4.
Output: 49.8 fold
